Reference source for all entries: patent US12473310B2

assay: physchem; type: physicochemical; conditions: % Recovery, chemical stability without extraction fluid

molecule | unit name | recovery at 24 h, 1 mg/mL
C=C1CC[C@H](OP(=O)(O)O)C/C1=C/C=C1\CCC[C@@]2(C)C1CC[C@@H]2[C@H](C)CCCC(C)C (stereo in doubt) [Cholecalciferol phosphate acid, cholecalciferol phosphate acid] | % | 88.5

###

assay: physchem; type: physicochemical; conditions: organic solvent or mixture, thermodynamic from solid, visual
Counter-ions that a name gives are not always drawn.

compound | solubility
C=C1CC[C@H](OP(=O)(O)O)C/C1=C/C=C1\CCC[C@@]2(C)C1CC[C@@H]2[C@H](C)CCCC(C)C (stereo partly shown) [Cholecalciferol phosphate disodium salt, cholecalciferol phosphate disodium salt] | < 2000 µg/mL

###

Assay: physchem
Assay type: physicochemical
Conditions: % Recovery, chemical stability without extraction fluid
Method: To validate the method of test agent recovery from the skin, solutions (1.0 mg/mL) of cholecalciferol phosphate were prepared in 100% PG and 100% water and the same concentration of cholecalciferol was prepared in 100% PG and PG:EtOH (50:50). The precise concentrations in these samples were analysed by HPLC using the method described above. […]

molecule | recovery at 24 h, 1 mg/mL, %
C=C1CC[C@H](O)C/C1=C/C=C1\CCC[C@]2(C)[C@@H]([C@H](C)CCCC(C)C)CC[C@@H]12 [Cholecalciferol, cholecalciferol, reference compound] | 90

###

experiment: physchem; type: physicochemical

molecule | recovery at 0.091 mg/mL / %
C=C1CC[C@H](O)C/C1=C/C=C1\CCC[C@]2(C)[C@@H]([C@H](C)CCCC(C)C)CC[C@@H]12 [Cholecalciferol, cholecalciferol, reference compound] | 92

###

assay: solubility in donor solution and thermodynamic activity (Table 4); assay type: physicochemical; conditions: organic solvent or mixture, thermodynamic from solid, PG; read-out: Solubility in PG
Where a name gives a salt, the structure may show the parent alone.
recorded metric: solubility (µg/mL)

compound | unit name | measured number
C=C1CC[C@H](OP(=O)(O)O)C/C1=C/C=C1\CCC[C@@]2(C)C1CC[C@@H]2[C@H](C)CCCC(C)C (stereo partly shown) [Cholecalciferol phosphate disodium salt, cholecalciferol phosphate disodium salt] | µg/mL | 2500

###

test: physchem; format: physicochemical; conditions: oil or lipid, thermodynamic from solid, visual

compound | solubility
C=C1CC[C@H](O)C/C1=C/C=C1\CCC[C@]2(C)[C@@H]([C@H](C)CCCC(C)C)CC[C@@H]12 [Cholecalciferol, cholecalciferol, reference compound] | > 25 mg/mL

###

Measured recovery at 0.091 mg/mL, listed per entry for reference.
test: physchem; format: physicochemical; conditions: % Recovery, chemical stability with extraction fluid
Structures can show the parent of a compound that is named as a salt.
recorded metric: recovery at 0.091 mg/mL (%)

compound | measured number
C=C1CC[C@H](OP(=O)(O)O)C/C1=C/C=C1\CCC[C@@]2(C)C1CC[C@@H]2[C@H](C)CCCC(C)C (some centres unmarked) [Cholecalciferol phosphate disodium salt, cholecalciferol phosphate disodium salt] | 95.2
C=C1CC[C@H](O)C/C1=C/C=C1\CCC[C@]2(C)[C@@H]([C@H](C)CCCC(C)C)CC[C@@H]12 [Cholecalciferol, cholecalciferol, reference compound] | 91.8

###

assay: physchem; assay type: physicochemical; details: water, thermodynamic from solid, visual
Counter-ions that a name gives are not always drawn.

compound | solubility
C=C1CC[C@H](OP(=O)(O)O)C/C1=C/C=C1\CCC[C@@]2(C)C1CC[C@@H]2[C@H](C)CCCC(C)C (stereo partly shown) [Cholecalciferol phosphate disodium salt, cholecalciferol phosphate disodium salt] | < 2500 µg/mL
